# system_under_test: Peptidyl-prolyl cis-trans isomerase FKBP1A (Homo sapiens, UniProt P62942)
# Sequence (P62942 whole entry, the tested form may be a part): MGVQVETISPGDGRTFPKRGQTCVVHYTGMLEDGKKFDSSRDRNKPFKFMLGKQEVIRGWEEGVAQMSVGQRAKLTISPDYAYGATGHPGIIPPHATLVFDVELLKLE
# assay_comment: The compound was evaluated for its affinity to the binding domain of immunophilin FK506 binding protein 12
quantity_measured: pKd
# pKd: negative log10 of molar concentration; output just the value

// pKd value for "COC[C@H]1O[C@@](O)(C(=O)C(=O)N2CCCC[C@H]2C(=O)OC/C(C)=C/[C@@H]2CC[C@@H](O)[C@H](OC)C2)[C@H](C)C[C@@H]1OC" : 8.00

Reference source: ChEMBL document CHEMBL1127107
